Biological target: Marinobacter sp. msLacBP6 variant W11C, Acrylodan conjugate
Assay: Fluorescence titration of conjugate
Format: binding
Conditions: read-out: appKd (lactate); λ1 473, λ2 520 nm
Measure: Kd (µM)
The reply should contain only the number, in µM.

Quick note, Kd for C[C@H](O)C(=O)O [lactate] landed at 400

* * *

Biological target: Marinobacter sp. msLacBP6 variant 187C, L70M, SEQ ID NO: 53, Badan conjugate
Test: Fluorescence titration of conjugate (affinity tuning)
Assay type: binding
Details: read-out: trueKd (lactate); λ1 459, λ2 539 nm
Measure: pKd
The quantity pKd is defined as the negative base-10 logarithm of the molar concentration.

The value of pKd recorded for C[C@H](O)C(=O)O [lactate] when tested on Marinobacter sp. msLacBP6 variant 187C, L70M, SEQ ID NO: 53, Badan conjugate reads 3.15
